System: UACC-257 melanoma
Test: NCI-60 one-dose screen, 48 h
Conditions: 10 µM unless noted
This is part of a sample that, as a whole, favours compounds with a hit. Of some 83,000 tested, about 20% had one in any assay. The source made the active and inactive calls. Rule for the calls: active = growth percent below 10; inactive = the rest.
Form entry, call: pick from active, inactive

Below are worked cases with known answers.
{"columns": ["compound", "label"],
 "data": [
  ["COc1ccc(/C=C/c2nc(Nc3ccc(S(=O)(=O)NC(C)=O)cc3)c3ccccc3n2)cc1", "inactive"],
  ["CCOc1cccc(-c2nc(N)nc(Nc3ccccc3SSc3ccccc3Nc3nc(N)nc(-c4cccc(OCC)c4)n3)n2)c1", "inactive"],
  ["COc1cc2oc(-c3cccc(C(=O)Nc4ccc(Cl)cc4)c3)cc(=O)c2c(O)c1OC", "inactive"],
  ["Cn1c(-c2c(N)n(CCCN3CCOCC3)c3nc(C#N)c(C#N)nc23)nc2ccccc21", "inactive"]
]}

Test call, this compound: O=C(N/N=C/c1ccc(Oc2ccccc2)cc1)c1cnn2c1NC(c1ccccc1)C2 (configuration not stated) inactive

Any idea what this test logged for `COC(=O)CNC(=O)[C@]12CCC(C)(C)C[C@H]1C1=CC[C@@H]3[C@@]4(C)Cc5c([nH]c6ccccc56)C(C)(C)[C@@H]4CC[C@@]3(C)[C@]1(C)CC2` ? inactive

Recorded test call requested for `CCN(CC)CC[n+]1cc2cc(OC)c(OC)cc2c2ccc3cc4c(cc3c21)OCO4` inactive

How did this test come out for `COc1ccc2[nH]c(=O)c(CN3CCN(c4nccc(-c5ccc(Cl)cc5)n4)CC3)cc2c1` ? inactive

Which outcome was assigned to `CCOC(=O)c1cc(C(=O)c2ccc(OC)cc2)n2ccc(/C=C/c3cc[n+](CC(=O)c4ccc(OC)cc4)cc3)cc12` in this test? inactive

Tell me the assay call for `O=C(Nc1ncc(Cc2cc(Cl)ccc2Cl)s1)c1cccs1` please. inactive

Would you mind telling me which call this test gave CC(c1ccccc1)C(C(=O)c1ccccc1)c1ccccc1 (configuration not stated) ? inactive

Dear colleague, could you share the recorded outcome for `O=C(C[n+]1cccc2ccccc21)c1ccc(O)c(O)c1` when you have a moment? inactive

Values compiled from PubChem BioAssay (NCI).
